- Assayed system: Ba/F3-FL-TYK2-P760L cells (Homo sapiens, UniProt P29597, P760L, cells depend on it)
- Construct: BaF3-FL-T2P760L (nM)
- Sequence (P29597 whole entry P760L): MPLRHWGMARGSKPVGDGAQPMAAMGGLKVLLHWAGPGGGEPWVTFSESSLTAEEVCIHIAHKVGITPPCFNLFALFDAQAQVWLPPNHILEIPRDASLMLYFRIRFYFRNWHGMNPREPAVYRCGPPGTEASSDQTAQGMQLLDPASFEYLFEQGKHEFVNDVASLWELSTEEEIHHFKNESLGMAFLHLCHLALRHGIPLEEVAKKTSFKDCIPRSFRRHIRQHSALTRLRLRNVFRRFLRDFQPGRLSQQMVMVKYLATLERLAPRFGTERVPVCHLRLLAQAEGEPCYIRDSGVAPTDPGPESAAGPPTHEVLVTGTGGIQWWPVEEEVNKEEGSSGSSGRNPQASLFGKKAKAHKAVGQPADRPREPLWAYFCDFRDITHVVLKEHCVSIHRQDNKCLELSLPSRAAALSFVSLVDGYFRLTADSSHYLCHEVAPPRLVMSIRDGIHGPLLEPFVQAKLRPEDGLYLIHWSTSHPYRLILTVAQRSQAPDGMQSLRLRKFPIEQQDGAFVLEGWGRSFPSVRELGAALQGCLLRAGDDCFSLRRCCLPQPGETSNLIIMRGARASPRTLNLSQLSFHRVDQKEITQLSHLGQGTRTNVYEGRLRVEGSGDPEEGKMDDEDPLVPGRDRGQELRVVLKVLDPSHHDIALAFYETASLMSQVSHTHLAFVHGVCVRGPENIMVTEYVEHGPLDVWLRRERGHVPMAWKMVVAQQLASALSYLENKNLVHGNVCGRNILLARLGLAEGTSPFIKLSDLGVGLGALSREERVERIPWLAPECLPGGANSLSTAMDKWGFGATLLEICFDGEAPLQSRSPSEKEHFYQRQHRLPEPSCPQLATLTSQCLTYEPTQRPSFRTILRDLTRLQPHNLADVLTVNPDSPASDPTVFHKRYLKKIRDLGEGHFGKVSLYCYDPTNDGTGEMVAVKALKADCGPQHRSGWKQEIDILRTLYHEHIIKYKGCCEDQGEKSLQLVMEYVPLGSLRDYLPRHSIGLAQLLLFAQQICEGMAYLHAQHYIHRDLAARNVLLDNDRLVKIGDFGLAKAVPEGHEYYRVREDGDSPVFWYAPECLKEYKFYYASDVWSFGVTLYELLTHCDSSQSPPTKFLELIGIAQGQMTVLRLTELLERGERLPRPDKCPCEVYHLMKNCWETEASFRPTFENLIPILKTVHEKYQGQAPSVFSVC
- Method summary: Anti-proliferative assay, Ba/F3-FL-TYK2-P760L cells (Cell-Titer Glo)
- Format: cell-based
- Condition description: 72 h, read-out: BaF3-FL-T2P760L IC50
Metric: GI50 (nM)

[P] [2H]C([2H])([2H])NC(=O)c1cnc(Nc2cccc(C#N)c2)nc1Nc1cccc(-c2ncn(C)n2)c1OC [Example 19]
[Q] [2H]C([2H])([2H])NC(=O)c1nnc2cc1Nc1cc(cc(-c3ccn(C)n3)c1OC)COCc1nc(ccc1F)N2 [Example 74]
// which entry has the larger GI50 value, P or Q ? Output the label that corresponds to your choice. Q
(Q: 93.5 nM, P: 34.9 nM)

---

- Method summary: Microsomal metabolic stability assay
- Type: in vitro ADME
- Condition description: pH 7.4; human liver microsomes, 0.5 mg/mL protein, 1 μM compound; read-out: Human LM T½
Metric: half-life at 1 μM (h)

1) [2H]C([2H])([2H])NC(=O)c1cnc(Nc2cc(C)nc(C)n2)cc1Nc1cc(F)c2cnn(CC)c2c1OC [Example 152]	0.544
2) [2H]C([2H])([2H])NC(=O)c1cnc(Nc2ccn(C)n2)cc1Nc1cn(C)c2c(C)cn(CC)c(=O)c12 [Example 198]	0.875
3) [2H]C([2H])([2H])NC(=O)c1cnc(NC(=O)C2CC2)cc1Nc1cn(C)c2c(F)cn(CC(F)(F)F)c(=O)c12 [Example 123]	0.437
4) [2H]C([2H])([2H])NC(=O)c1nnc(NC(=O)C2CC2)cc1Nc1csc2ccn(CC)c(=O)c12 [Example 197]	0.298
5) [2H]C([2H])([2H])NC(=O)c1cnc2cc1Nc1cc(cc(-c3ncn(C)n3)c1OC)COCc1cc(F)cc(n1)N2 [Example 77]	5.03
6) [2H]C([2H])([2H])NC(=O)c1cnc(Nc2ccn(C)n2)cc1Nc1ccc2cnn(C([2H])([2H])[2H])c2c1OC [Example 154]	0.732
7) [2H]C([2H])([2H])NC(=O)c1cnc(NC(=O)C2CC2)cc1Nc1nn(CCCOC)c2ccn(CC(F)(F)F)c(=O)c12 [Example 96]	1.38
8) [2H]C([2H])([2H])NC(=O)c1nnc2cc1Nc1cc(cc(-c3ncn(C)n3)c1OC)COCc1cc(F)cc(n1)N2 [Example 71]	0.843

[a] COC(=O)c1cnc(NC(=O)C2CC2)cc1Nc1ncn2ccn(CC(F)(F)F)c(=O)c12 [Example 47]
[b] [2H]C([2H])([2H])NC(=O)c1cnc(Nc2cccc(C#N)n2)cc1Nc1cn(C)c2c(Cl)cn(CC)c(=O)c12 [Example 163]
Which one would you say has the larger half-life at 1 μM value: a , or b ? Lab log: write the label of the selected item as the result. a
(a: 0.512 h, b: 0.282 h)

[A] [2H]C([2H])([2H])NC(=O)c1cnc2nc1Nc1cc(cc(-c3ncn(C)n3)c1OC)COCc1cc(cc(F)c1F)N2 [Example 78]
[B] [2H]C([2H])([2H])NC(=O)c1cnc(NC(=O)C2CC2)cc1Nc1ccc2cnn(CC(F)(F)F)c2c1OC [Example 129]
Field: lower half-life at 1 μM | Options: A / B Record your answer as the label of the chosen record. B

[I] CNC(=O)c1nnc(NC(=O)C2CC2)cc1Nc1cn(C)c2ccn(C)c(=O)c12 [Example 49]
[II] CCn1ccc2scc(Nc3cc(NC(=O)C4CC4)ncc3C(=O)NC)c2c1=O [Example 17]
[III] CNC(=O)c1cnc(Nc2ccc(F)cn2)cc1Nc1cn(C)c2ccn(C)c(=O)c12 [Example 11]
[IV] [2H]C([2H])([2H])NC(=O)c1cnc(NC(=O)C2CC2)cc1Nc1cn(CC)c2ncn([C@H](C)C(F)(F)F)c(=O)c12 (single isomer, unassigned) [Example 254A]
[V] [2H]C([2H])([2H])NC(=O)c1cnc(Nc2ccc(F)cn2)cc1Nc1ccn2ncc(C#N)c2c1OC [Example 257]
List the 5 entries from lowest half-life at 1 μM to highest half-life at 1 μM value. Please respond by ranking the labels in the order requested. III, II, IV, I, V

[1] [2H]C([2H])([2H])NC(=O)c1nnc2cc1Nc1cc(cc(-c3ccn(C)n3)c1OC)COCc1nc(ccc1F)N2 [Example 74]
[2] [2H]C([2H])([2H])NC(=O)c1cnc(NC(=O)C2CC2)cc1Nc1csc2c(Cl)cn(C)c(=O)c12 [Example 172]
Hey, which is lower on measured half-life at 1 μM, 1 or 2 ? Please indicate the selected item by its label. 2
(2: 0.402 h, 1: 1.32 h)

---

- Method summary: Microsomal metabolic stability assay
- Type: in vitro ADME
- Condition description: pH 7.4; human liver microsomes, 0.5 mg/mL protein, 1 μM compound; read-out: Human LM Clint
Metric: microsomal CLint at 1 μM (µL/min/mg)

[P] [2H]C([2H])([2H])NC(=O)c1cnc(NC(=O)C2CC2)cc1Nc1cn(C)c2ccn(C(C)C(F)(F)F)c(=O)c12 (stereo not shown)
[Q] CNC(=O)c1cnc(NC(=O)C2CC2)cc1Nc1nn(C)c2ccn(CC(F)(F)F)c(=O)c12
[R] COC(=O)c1cnc(NC(=O)C2CC2)cc1Nc1ncn2ccn(CC(F)(F)F)c(=O)c12
[S] [2H]C([2H])([2H])NC(=O)c1cnc2nc1Nc1cc(cc(-c3ncn(C)n3)c1OC)COCc1cc(F)cc(c1)N2
Rank the 4 compounds: largest microsomal CLint at 1 μM first, smallest last. Please respond with the labels ordered as the question requires. P, R, S, Q
(P: 69.3 µL/min/mg, R: 45.2 µL/min/mg, S: 27.8 µL/min/mg, Q: 8.05 µL/min/mg)

---

- Method summary: Microsomal metabolic stability assay
- Format: in vitro ADME
- Condition description: pH 7.4; human liver microsomes, 0.5 mg/mL protein, 1 μM compound; read-out: Human LM T½
Metric: half-life at 1 μM (min)

1) CCn1ccc2c(c(Nc3cc(NC(=O)C4CC4)nnc3C(=O)NC)cn2C)c1=O	17.3
2) [2H]C([2H])([2H])NC(=O)c1cnc(Nc2ccncn2)cc1Nc1ccc2cnn(C([2H])([2H])[2H])c2c1OC	27.5

[I] [2H]C([2H])([2H])NC(=O)c1cnc(NC(=O)C2CC2)cc1Nc1ccc2ncn(CC)c2c1OC
[II] [2H]C([2H])([2H])NC(=O)c1cnc(Nc2ccc(F)cn2)cc1Nc1cn(C)c2ccn(CC)c(=O)c12
For the pair I and II , which member has the lower half-life at 1 μM number? Write down the label attached to your selection. I

---

- Method summary: Kinetic solubility
- Format: physicochemical
- Condition description: phosphate buffer, aqueous buffer, kinetic from dmso stock, PBS (pH 7.4), 1% DMSO, room temperature
Metric: solubility at 2 h (µM)

1. [2H]C([2H])([2H])NC(=O)c1cnc(NC(=O)C2CC2)cc1Nc1ccc2cnn(CC)c2c1OC [Example 44]	38.7
2. [2H]C([2H])([2H])NC(=O)c1cnc(NC(=O)C2CC2)cc1Nc1ccc2cnn(CC(F)F)c2c1OC [Example 131]	32.1
3. CNC(=O)c1nnc(NC(=O)C2CC2)cc1Nc1cn(C)c2ccn(C)c(=O)c12 [Example 49]	6.3

[A] [2H]C([2H])([2H])NC(=O)c1cnc(Nc2ccn(C)n2)cc1Nc1nn(C)c2ccn(CC)c(=O)c12 [Example 219]
[B] [2H]C([2H])([2H])NC(=O)c1cnc(NC(=O)C2CC2)cc1Nc1ccc2ncn(CC)c2c1OC [Example 167]
[C] [2H]C([2H])([2H])NC(=O)c1cnc(NC(=O)C2CC2)cc1Nc1ccc2cn[nH]c2c1OC [Example 207]
[D] [2H]C([2H])([2H])NC(=O)c1cnc(NC(=O)C2CC2)cc1Nc1ncc2cnn(CC)c2c1OC [Example 262]
List the 4 entries from lowest solubility at 2 h to highest solubility at 2 h value. Give the labels in the order requested. C, D, A, B
(C: 8.45 µM, D: 17.6 µM, A: 33.9 µM, B: 109 µM)

---

- Method summary: Microsomal metabolic stability assay
- Format: in vitro ADME
- Condition description: pH 7.4; dog liver microsomes, 0.5 mg/mL protein, 1 μM compound; read-out: Dog LM Clint
Metric: microsomal CLint at 1 μM (µL/min/mg)

Solved entries:
1) [2H]C([2H])([2H])NC(=O)c1cnc(Nc2ccc(F)cn2)cc1Nc1cn(CCOC)c2ccn(CC)c(=O)c12	21.9
2) [2H]C([2H])([2H])NC(=O)c1nnc2cc1Nc1cc(cc(-c3ccn(C)n3)c1OC)COCc1nc(ccc1F)N2	108

[a] CNC(=O)c1cnc(NC(=O)C2CC2)cc1Nc1csc2c(Cl)cn(C)c(=O)c12
[b] [2H]C([2H])([2H])NC(=O)c1cnc2cc1Nc1cc(cc(-c3ncn(C)n3)c1OC)COCc1nc(ccc1F)N2
[c] [2H]C([2H])([2H])NC(=O)c1cnc(Nc2ccc(F)cc2)nc1Nc1cccc(-c2ncn(C)n2)c1OC
Rank descending by microsomal CLint at 1 μM. Write the labels in rank order as requested. c, b, a
(c: 101 µL/min/mg, b: 23.1 µL/min/mg, a: 2.94 µL/min/mg)
